Recorded av puncta, one value per entry.
Biological target: tau (Homo sapiens)
Sequence (P10636 623-695 limits assumed): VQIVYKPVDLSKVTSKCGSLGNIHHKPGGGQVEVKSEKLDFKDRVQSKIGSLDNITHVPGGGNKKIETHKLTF
Assay: MCE Phenols Library screening, tau biosensor cell seeding assay (AvZ)
Assay type: cell-based
Conditions: average of raw data 1 and 2
Answer with the value's number alone.

COc1cc(O)c2c(=O)c(-c3ccc(O)cc3)coc2c1 ... 49877.5
C=CCc1ccc(O)c(O)c1 ... 11173.7
O=c1c(-c2ccc(O)cc2)coc2cc(O)cc(O)c12 ... 22958.3
COc1cc(/C=C/C(=O)O[C@H]2C[C@@](O)(C(=O)O)C[C@H](O)[C@@H]2O)ccc1O (stereo in doubt) ... 17749.2
COc1ccc(/C=C/c2cc(O)cc(O[C@@H]3O[C@H](CO)[C@@H](O)[C@H](O)[C@H]3O)c2)cc1 ... 23150.9
COc1cc(-c2coc3cc4c(c(O)c3c2=O)OCO4)cc(O)c1OC ... 26548.7
COc1cc(O)c2c(c1)oc(=O)c1c3cc(O)c(O)cc3oc21 ... 8376
C=C(C)[C@H](CC=C(C)C)Cc1c(O)cc(OC)c2c1O[C@H](c1ccc(O)cc1O)[C@@H](O)C2=O ... 20816.6
Oc1cc(O)c2c(c1)O[C@@]1(c3ccc(O)c(O)c3)Oc3cc(O)c4c(c3[C@@H]2[C@H]1O)O[C@H](c1ccc(O)c(O)c1)[C@@H](O)C4 ... 23298.5
CN(C)[C@@H]1C(O)=C(C(N)=O)C(=O)[C@@]2(O)C(O)=C3C(=O)c4c(O)cccc4[C@@](C)(O)[C@H]3C[C@@H]12.Cl [Tetracycline (hydrochloride)] ... 26010.3

State the recorded av puncta for this entry: `COc1ccc(/C=C/C(=O)C(C)(C)C(=O)/C=C/c2ccc(OC)c(OC)c2)cc1OC` 8003.14

Entry to check: COc1ccc(CCO[C@@H]2O[C@H](CO[C@@H]3O[C@H](CO)[C@H](O)[C@H](O)[C@H]3O)[C@@H](OC(=O)/C=C/c3ccc(O)c(OC)c3)[C@H](O[C@@H]3O[C@@H](C)[C@H](O)[C@@H](O)[C@H]3O)[C@H]2O)cc1O [Jionoside B1] 18414.7

Entry to check: COc1cc(/C=C/c2ccc(O)c(O)c2)cc(OC)c1 [3'-Hydroxypterostilbene] 21302.3

Entry to check: `CC(=O)O[C@H](CC=C(C)C)C1=CC(=O)c2c(O)ccc(O)c2C1=O` 28473.3

The values you see were collected from paper PMC11784839.
